Measured Pearson Coefficient (r), sphingolipid level vs cytotoxicity of individual entries
System: COG-LL-332
Format: cell-based, human
Procedure: Statistical analyses. […] Propagated standard deviations were calculated using standard methods. Correlation analyses were performed using Sigmaplot 11 software.
Answer field: number only, no words.

Example entries and their recorded answers appear below.
{"Molecule": "CCCCCCCCCCCCCCCCCCCCCC(=O)N[C@@H](CO)[C@H](O)CCCCCCCCCCCCCCC", "Measured target": "COG-LL-332", "Measurement": 0.73}
{"Molecule": "CCCCCCCCCCCCCC=CC(O)C(CO)NC(=O)CCCCCCCCCCCCCCC (stereo not drawn)", "Measured target": "COG-LL-332", "Measurement": "−0.09"}
{"Molecule": "CCCCCCCCCCCCCCCCCCCC(=O)N[C@@H](CO)[C@H](O)CCCCCCCCCCCCCCC", "Measured target": "COG-LL-332", "Measurement": "−0.09"}

Incoming: Form field - read-out: Pearson Coefficient (r), sphingolipid level vs cytotoxicity; system: COG-LL-332; submitted item: `CCCCCCCCCCCCC/C=C/[C@@H](O)[C@H](CO)NC(=O)CCCCCCCCCCCCC`
Outgoing: −0.32

Incoming: Form entry - test system: COG-LL-332; read-out: Pearson Coefficient (r), sphingolipid level vs cytotoxicity; molecule: `CCCCCCCCCCCCCCCCCC(=O)N[C@@H](CO)[C@H](O)CCCCCCCCCCCCCCC`
Outgoing: −0.16

Incoming: Recall the recorded Pearson Coefficient (r), sphingolipid level vs cytotoxicity for CCCCCCCCCCCCCC=CC(O)C(CO)NC(=O)CCCCCCCCCCCCCCCCCCCCC (stereo not drawn) with COG-LL-332 and state it.
Outgoing: 0.45

Incoming: Give COG-LL-332 Pearson Coefficient (r), sphingolipid level vs cytotoxicity for `CCCCCCCCCCCCCCCC(=O)N[C@@H](CO)[C@H](O)CCCCCCCCCCCCCCC`
Outgoing: 0.45

Incoming: Recall the recorded Pearson Coefficient (r), sphingolipid level vs cytotoxicity for CCCCCCCCCCCCCC=CC(O)C(CO)NC(=O)CCCCCCCCCCCCCCCCCCC (stereo not drawn) with COG-LL-332 and state it.
Outgoing: −0.79

Incoming: Short answer please: Pearson Coefficient (r), sphingolipid level vs cytotoxicity, COG-LL-332, entry CCCCCCCCC=CCCCCCCCCCCCC(=O)NC(CO)C(O)C=CCCCCCCCCCCCCC (stereo not drawn)
Outgoing: −0.14

* * *

tested on: COG-LL-317; format: cell-based, human
Label criterion not met if Pearson Coef. (r), sphingolipid level vs cytotoxicity falls below 0.03; label criterion met in every other case.

Solved entries (count: 6):
{"Compound": "CCCCCCCCCCCCCC=CC(O)C(CO)NC(=O)CCCCCCCCCCCCCCC (centres unmarked)", "Measured target": "COG-LL-317", "Answer label": "criterion not met"}
{"Compound": "CCCCCCCCCCCCCCCCCCCCCC(=O)N[C@@H](CO)[C@H](O)CCCCCCCCCCCCCCC", "Measured target": "COG-LL-317", "Answer label": "criterion met"}
{"Compound": "CCCCCCCCCCCCCC=CC(O)C(CO)NC(=O)CCCCCCCCCCCCCCCCCCC (centres unmarked)", "Measured target": "COG-LL-317", "Answer label": "criterion not met"}
{"Compound": "CCCCCCCCCCCCC/C=C/[C@@H](O)[C@H](CO)NC(=O)CCCCCCCCCCCCC", "Measured target": "COG-LL-317", "Answer label": "criterion not met"}
{"Compound": "CCCCCCCCCCCCCCCCCCCC(=O)N[C@@H](CO)[C@H](O)CCCCCCCCCCCCCCC", "Measured target": "COG-LL-317", "Answer label": "criterion not met"}
{"Compound": "CCCCCCCCCCCCCCC[C@@H](O)[C@H](CO)NC(=O)CCCCCCCCCCCCC", "Measured target": "COG-LL-317", "Answer label": "criterion met"}

Incoming: Given the entry CCCCCCCCCCCCCC=CC(O)C(CO)NC(=O)CCCCCCCCCCCCCCCCCCCCC (centres unmarked) , answer whether its Pearson Coef. (r), sphingolipid level vs cytotoxicity meets or surpasses 0.03.
Outgoing: criterion met
